ASSAY_SUMMARY: Dose finding / toxicity in pregnant C57B1/6 mice
Type: in vivo
RUN_PARAMETERS: female, mouse, in vivo, ip, read-out: maximum tolerated dose
RECORDED_METRIC: MTD (mg/kg/day)

                                   molecule  recorded_metric  data_value
0  CC(C)[C@]12O[C@H]1[C@@H]1O[C@]13[C@]1(O[C@H]1C[C@H]1C4=C(CC[C@@]13C)C(=O)OC4)[C@@H]2O [triptolide]              MTD        0.07

* * *

ASSAY_SUMMARY: in vitro
Assay type: cell-based
RUN_PARAMETERS: human
RECORDED_METRIC: cytotoxicity at 24 h, 0.1 µM

>>> print(df.to_string())
                                   molecule  data_value
0  CC(C)[C@]12O[C@H]1[C@@H]1O[C@]13[C@]1(O[C@H]1C[C@H]1C4=C(CC[C@@]13C)C(=O)OC4)[C@@H]2O [triptolide]         50%
